# Test system: Saccharomyces cerevisiae;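 also: PSI is a weighted mean of sequencing reads over stability bins, variants kept only with over 10 reads, mCherry proximal and sfGFP distal, peptide attached via GGGS linker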
# MEASUREMENT_DESCRIPTION: protein stability index of tFT-peptide fusion (C-terminal peptide) (PSI (0-1 scale)); higher = more stable (slower turnover)
# TEST_CONDITIONS: genetic background: doa10 deletion; temperature: 30 C
For each of the sequences below, state its protein stability index.
Just the number.

Suppose we examine the sequence `CVPGPRWWYHSA` ; what protein stability index value has been reported?
0.233

Suppose we examine the sequence `YALVQHRWVYYF` ; what protein stability index value has been reported?
0.0888

Suppose we examine the sequence `WGRFFWGCGVWV` ; what protein stability index value has been reported?
0.438

Suppose we examine the sequence `GLRLRCPLLLSL` ; what protein stability index value has been reported?
0.507

Suppose we examine the sequence `LSFLCFSTVLHC` ; what protein stability index value has been reported?
0.46

Suppose we examine the sequence `SFIVGYRWNNRN` ; what protein stability index value has been reported?
0.337

Suppose we examine the sequence `LVGYCGAWACVV` ; what protein stability index value has been reported?
0.244

Suppose we examine the sequence `KFKRLTKFYARQ` ; what protein stability index value has been reported?
0.108

Suppose we examine the sequence `LLSLLLDPLLCL` ; what protein stability index value has been reported?
0.521

Suppose we examine the sequence `WRMRCGLIIGLV` ; what protein stability index value has been reported?
0.1

Suppose we examine the sequence `WGLPVGVESSGG` ; what protein stability index value has been reported?
0.64

Suppose we examine the sequence `GFFFWTMCFWVV` ; what protein stability index value has been reported?
0.204

Suppose we examine the sequence `AFLCVFGFCFFV` ; what protein stability index value has been reported?
0.285

Suppose we examine the sequence `DWCACFFILLLA` ; what protein stability index value has been reported?
0.145

Suppose we examine the sequence `PVWLFLVRAIKG` ; what protein stability index value has been reported?
0.262

Suppose we examine the sequence `PRSFFYIQFVFA` ; what protein stability index value has been reported?
0.194

Suppose we examine the sequence `GRRLGLLNLLSY` ; what protein stability index value has been reported?
0.255

Suppose we examine the sequence `PSPVPPPSSPSP` ; what protein stability index value has been reported?
0.674

Suppose we examine the sequence `WGFLSVVCLSGV` ; what protein stability index value has been reported?
0.384

Suppose we examine the sequence `PSVRCVVACFIN` ; what protein stability index value has been reported?
0.137

Suppose we examine the sequence `SGRATSSRTSEP` ; what protein stability index value has been reported?
0.662

Suppose we examine the sequence `VYFPRLLVRVSW` ; what protein stability index value has been reported?
0.436

Suppose we examine the sequence `FFIVGACAYVFA` ; what protein stability index value has been reported?
0.204

Suppose we examine the sequence `LFLPFLPTLALL` ; what protein stability index value has been reported?
0.598

Suppose we examine the sequence `WLSWATRRIVLG` ; what protein stability index value has been reported?
0.384

Suppose we examine the sequence `LFLYDFIALRCS` ; what protein stability index value has been reported?
0.21

Suppose we examine the sequence `TYNVMFSPWRKA` ; what protein stability index value has been reported?
0.106

Suppose we examine the sequence `CFYVGFLGYFVF` ; what protein stability index value has been reported?
0.342

Suppose we examine the sequence `YLGLSAVAILWM` ; what protein stability index value has been reported?
0.381
